B1: PRAME (parent)
chain: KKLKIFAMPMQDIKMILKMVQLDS

- Variants of: B1
- Assay comment: protein stability index of a GFP-peptide fusion (GPS, HEK-293T) (PSI 1-6); higher = more stable;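 further: lentivirally expressed fusions sorted by FACS into six bins by GFP to DsRed ratio, PSI derived from sequencing read proportions per bin multiplied by bin number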
- Setup conditions: c terminus: a fixed tail appended
Rule: protein stability index under 2 gives Not satisfied, otherwise Satisfied.

# Mutant designation, Qualitative label
measured = [
    ("K18L", "Satisfied"),
]

In plain terms: is recorded protein stability index at least 2 for V20E ?
Satisfied

One more variant: I13D
Satisfied

One more variant: D12A
Satisfied

Values from the supplement of paper PMC10567573
